Experiment: Plasma concentration in C57BL/6 mouse at 50 mg/kg, po after 5 hrs by LC-MS/MS analysis
Assay type: ADME, organism-based
Readout Kind: concentration at 5 h (nM)
# output: bare number, implied unit nM

Exam item: Find the recorded concentration at 5 h belonging to `O=C1Cc2cc(S(=O)(=O)NNc3ccc(Br)cc3)ccc2N1` and report it.
Marked response: 2200

----------
Target: L-type calcium channel, benzothiazepine binding site (Homo sapiens, UniProt O60840+Q01668+Q13698+Q13936)
Test: Inhibition of L-type calcium channel benzothiazepine binding site (unknown origin) at 10 uM
Format: protein assay
Readout Kind: inhibition at 10 µM

Exam item: Find the recorded inhibition at 10 µM belonging to `O=C1Cc2cc(S(=O)(=O)NNc3ccc(Br)cc3)ccc2N1` and report it.
Marked response: < 50%

----------
Test: Plasma concentration in C57BL/6 mouse at 50 mg/kg, po after 2 hrs by LC-MS/MS analysis
Format: ADME, organism-based
Readout Kind: concentration at 2 h (µM)
# output: bare number, implied unit µM

Exam item: Find the recorded concentration at 2 h belonging to `O=C1Cc2cc(S(=O)(=O)NNc3ccc(Br)cc3)ccc2N1` and report it.
Marked response: 4

----------
Target: Indoleamine 2,3-dioxygenase 1 (Homo sapiens, UniProt P14902)
Sequence (P14902 whole entry): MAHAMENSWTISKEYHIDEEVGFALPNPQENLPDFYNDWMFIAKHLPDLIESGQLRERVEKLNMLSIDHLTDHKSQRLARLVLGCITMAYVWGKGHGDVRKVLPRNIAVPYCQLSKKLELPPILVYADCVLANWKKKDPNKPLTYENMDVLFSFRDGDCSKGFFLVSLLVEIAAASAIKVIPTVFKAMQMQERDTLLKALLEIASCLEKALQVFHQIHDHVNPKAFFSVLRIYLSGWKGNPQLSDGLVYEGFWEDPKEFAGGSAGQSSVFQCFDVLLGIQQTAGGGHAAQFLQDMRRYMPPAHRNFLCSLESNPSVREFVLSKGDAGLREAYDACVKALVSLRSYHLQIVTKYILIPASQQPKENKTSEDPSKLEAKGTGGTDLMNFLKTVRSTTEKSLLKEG
Readout Kind: IC50 (nM)
# output: bare number, implied unit nM

Past entries and their recorded results:
[[record]]
structure_smiles = "CC1(C)C(=O)Nc2ccc(S(=O)(=O)NNc3ccc(Br)cc3)cc21"
readout_kind = "IC50"
measurement_units = "nM"
recorded_value = 69.9

[[record]]
structure_smiles = "O=C(CCN1CCOCC1)Nc1ccc(S(=O)(=O)NNc2ccc(Br)cc2)cc1"
readout_kind = "IC50"
measurement_units = "nM"
recorded_value = 77

[[record]]
structure_smiles = "Cn1c(=O)n(C)c2cc(S(=O)(=O)NNc3ccc(Br)cc3)ccc21"
readout_kind = "IC50"
measurement_units = "nM"
recorded_value = 47

[[record]]
structure_smiles = "O=C1CCc2cc(S(=O)(=O)NNc3ccc(Br)cc3)ccc2N1"
readout_kind = "IC50"
measurement_units = "nM"
recorded_value = 72.7


Exam item: Which IC50 is reported with Indoleamine 2,3-dioxygenase 1 (Homo sapiens, UniProt P14902) for this entry: `O=C1CCCc2cc(S(=O)(=O)NNc3ccc(Br)cc3)ccc2N1` ?
Marked response: 112

Exam item: // next record `O=C1CCCN1c1ccc(S(=O)(=O)NNc2ccc(Br)cc2)cc1`
Marked response: 68.1

Exam item: // next record `O=C1Cc2cc(S(=O)(=O)NNc3ccc(Br)cc3)ccc2N1`
Marked response: 35.8

Exam item: // next record `Nc1nc2cc(S(=O)(=O)NNc3ccc(Br)cc3)ccc2[nH]1`
Marked response: 122

----------
Molecular target: L-type calcium channel, dihydropyridine binding site (Homo sapiens, UniProt O60840+Q01668+Q13698+Q13936)
Test: Inhibition of L-type calcium channel dihydropyridine binding site (unknown origin) at 10 uM
Type: protein assay
Readout Kind: inhibition at 10 µM

Exam item: Find the recorded inhibition at 10 µM belonging to `O=C1Cc2cc(S(=O)(=O)NNc3ccc(Br)cc3)ccc2N1` and report it.
Marked response: < 50%

----------
Test: AUC (0 to infinity) in Sprague-Dawley rat plasma at 10 mg/kg, po by LC-MS/MS analysis
Assay type: ADME, organism-based
Parameters: dose 10 mg/kg, route oral, time infinity
Below, each entry is listed alongside its reported log10 AUC(0-inf).
Parameter value (number): base-10 log of AUC(0-inf) in ng·h/mL.

Past entries and their recorded results:
[[record]]
structure_smiles = "O=C1CCc2cc(S(=O)(=O)NNc3ccc(Br)cc3)ccc2N1"
recorded_value = 2.88

[[record]]
structure_smiles = "CC1(C)C(=O)Nc2ccc(S(=O)(=O)NNc3ccc(Br)cc3)cc21"
recorded_value = 2.48

[[record]]
structure_smiles = "O=C1Cc2cc(S(=O)(=O)NNc3ccc(Br)cc3)ccc2N1"
recorded_value = 3.86

[[record]]
structure_smiles = "O=S(=O)(NNc1ccc(Br)cc1)c1ccc2[nH]c(O)nc2c1"
recorded_value = 2.58

[[record]]
structure_smiles = "CC(=O)Nc1ccc(S(=O)(=O)NNc2ccc(Br)cc2)cc1"
recorded_value = 3.51


The record that follows has no log10 AUC(0-inf) shown yet.
Exam item: Find the recorded log10 AUC(0-inf) belonging to `O=C1CCCN1c1ccc(S(=O)(=O)NNc2ccc(Br)cc2)cc1` and report it.
Marked response: 3.99

----------
Assay: Half life in Sprague-Dawley rat plasma at 2 mg/kg, iv by LC-MS/MS analysis
Format: ADME, organism-based
Settings: Sprague-Dawley, plasma
Readout Kind: half-life (h)
# output: bare number, implied unit h

Past entries and their recorded results:
[[record]]
structure_smiles = "O=S(=O)(NNc1ccc(Br)cc1)c1ccc2[nH]c(O)nc2c1"
measurement_units = "h"
recorded_value = 0.8

[[record]]
structure_smiles = "O=C1CCCN1c1ccc(S(=O)(=O)NNc2ccc(Br)cc2)cc1"
measurement_units = "h"
recorded_value = 1.5

[[record]]
structure_smiles = "O=C1Cc2cc(S(=O)(=O)NNc3ccc(Br)cc3)ccc2N1"
measurement_units = "h"
recorded_value = 2.3

[[record]]
structure_smiles = "CC1(C)C(=O)Nc2ccc(S(=O)(=O)NNc3ccc(Br)cc3)cc21"
measurement_units = "h"
recorded_value = 2.4


The record that follows has no half-life shown yet.
Exam item: Find the recorded half-life belonging to `CC(=O)Nc1ccc(S(=O)(=O)NNc2ccc(Br)cc2)cc1` and report it.
Marked response: 3.5

----------
Experiment: Half life in Sprague-Dawley rat plasma at 10 mg/kg, po by LC-MS/MS analysis
Type: ADME, organism-based
Readout Kind: half-life (h)
# output: bare number, implied unit h

[[record]]
structure_smiles = "O=C1Cc2cc(S(=O)(=O)NNc3ccc(Br)cc3)ccc2N1"
recorded_value = 2.3


Exam item: Find the recorded half-life belonging to `O=C1CCCN1c1ccc(S(=O)(=O)NNc2ccc(Br)cc2)cc1` and report it.
Marked response: 1.7

Exam item: // next record `O=S(=O)(NNc1ccc(Br)cc1)c1ccc2[nH]c(O)nc2c1`
Marked response: 3

Exam item: // next record `O=C1CCc2cc(S(=O)(=O)NNc3ccc(Br)cc3)ccc2N1`
Marked response: 8.9

Exam item: // next record `CC(=O)Nc1ccc(S(=O)(=O)NNc2ccc(Br)cc2)cc1`
Marked response: 2.7

Exam item: // next record `CC1(C)C(=O)Nc2ccc(S(=O)(=O)NNc3ccc(Br)cc3)cc21`
Marked response: 4.7

----------
Assay: Clearance in Sprague-Dawley rat plasma at 2 mg/kg, iv by LC-MS/MS analysis
Type: ADME, organism-based
Below, each entry is listed alongside its reported clearance.
# output: bare number, implied unit mL/min/kg

[[record]]
structure_smiles = "O=C1CCCN1c1ccc(S(=O)(=O)NNc2ccc(Br)cc2)cc1"
readout_kind = "clearance"
recorded_value = 6.3

[[record]]
structure_smiles = "CC(=O)Nc1ccc(S(=O)(=O)NNc2ccc(Br)cc2)cc1"
readout_kind = "clearance"
recorded_value = 19.6

[[record]]
structure_smiles = "CC1(C)C(=O)Nc2ccc(S(=O)(=O)NNc3ccc(Br)cc3)cc21"
readout_kind = "clearance"
recorded_value = 93.3


Exam item: Find the recorded clearance belonging to `O=S(=O)(NNc1ccc(Br)cc1)c1ccc2[nH]c(O)nc2c1` and report it.
Marked response: 57.1

----------
Assay: Oral bioavailability in Sprague-Dawley rat plasma at 10 mg/kg by LC-MS/MS analysis
Type: ADME, organism-based
Readout Kind: bioavailability
Write down the value, and be sure its unit follows.

Exam item: Find the recorded bioavailability belonging to `O=C1CCc2cc(S(=O)(=O)NNc3ccc(Br)cc3)ccc2N1` and report it.
Marked response: 11%

Exam item: // next record `O=S(=O)(NNc1ccc(Br)cc1)c1ccc2[nH]c(O)nc2c1`
Marked response: 13%

Exam item: // next record `O=C1Cc2cc(S(=O)(=O)NNc3ccc(Br)cc3)ccc2N1`
Marked response: 59%
